Values from PubChem BioAssay AID1918956

- Tested on: OVCAR-5 complex spheroids, viability
- run description: Anticancer human tumor OVCAR-5 cell line growth inhibition;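 note: spheroids exposed to agents for seven days; 100% = DMSO vehicle control wells viability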
- experimental context: second compound 3.16 µM; first compound 0.949 µM; stronger effect = lower value
parameter measured: viability, T/C (%)
State just the number; it will be interpreted in %.

Worked cases, answers included:
# compound, parameter measured, unit of measurement, test value
data = [
    ("COc1cc(C2c3cc4c(cc3C(OC3OC5COC(C)OC5C(O)C3O)C3COC(=O)C23)OCO4)cc(OC)c1O (stereo unspecified) + NC1CCC(NC2CC2c2ccccc2)CC1", "viability, T/C", "%", 42.8),
    ("Nc1ccccc1NC(=O)c1ccc(CNC(=O)OCc2cccnc2)cc1 + NC1CC1c1ccc(-c2cccc(O)c2)cc1", "viability, T/C", "%", 17.8),
    ("CCN(c1cc(-c2ccc(CN3CCOCC3)cc2)cc(C(=O)NCc2c(C)cc(C)[nH]c2=O)c1C)C1CCOCC1 + NC1CC1c1ccc(-c2cccc(O)c2)cc1", "viability, T/C", "%", 90.6),
    ("CCN(c1cc(-c2ccc(CN3CCOCC3)cc2)cc(C(=O)NCc2c(C)cc(C)[nH]c2=O)c1C)C1CCOCC1 + NC1CCC(NC2CC2c2ccccc2)CC1", "viability, T/C", "%", 89.9),
    ("O=C(C=Cc1cccc(S(=O)(=O)Nc2ccccc2)c1)NO + NC1CC1c1ccc(-c2cccc(O)c2)cc1", "viability, T/C", "%", 10.2),
]

Okay, next one:
// query Field: viability, T/C (OVCAR-5 complex spheroids, viability). Entry: NS(=O)(=O)OCC1CC(n2ccc3c(NC4CCc5ccccc54)ncnc32)CC1O (stereo unspecified) + NC1CCC(NC2CC2c2ccccc2)CC1
// result 16.4
